Molecular target: SH2 domain-containing protein 1A (Homo sapiens)
Experiment: Inhibition of recombinant 6-His-tagged SLAM associated protein SH2 domain (unknown origin) expressed in Escherichia coli BL21(DE3) binding to biotinyl-KKSLTIpYAQVQK-NH2 attached to NeutrAvidin-coated plates using p-nitrophenyl phosphate as substrate after 1 hr
Calls of active or inactive are those of the source. The calls are words filed in the database; no cut-off is given here. Peptide text beside a SMILES is read from it.
Hello, when you answer, please use one of the following outcomes: active, inactive

Exercise: // return assay outcome for CC[C@H](C)[C@H](NC(=O)[C@@H](NC(=O)[C@H](CC(C)C)NC(=O)[C@H](CO)NC(=O)[C@H](CCCCN)NC(=O)[C@H](CCCCN)NC(C)=O)[C@@H](C)O)C(=O)N[C@@H](Cc1ccc(OP(=O)(O)O)cc1)C(=O)N[C@@H](C)C(=O)N[C@@H](CCC(N)=O)C(=O)N[C@H](C(=O)N[C@@H](CCC(N)=O)C(=O)N[C@@H](CCCCN)C(N)=O)C(C)C (HELM PEPTIDE1{[ac].K.K.S.L.T.I.[O=C([C@H](Cc1ccc(OP(=O)(O)O)cc1)N[*:1])[*:2]].A.Q.V.Q.K.[am]}$$$$V2.0)
Solution: active

Exercise: // return assay outcome for CC(C)(C)OC(=O)NCCCC[C@H](NC(=O)[C@H](Cc1ccc2c(c1)COP(=O)(O)O2)NC(=O)OCC1c2ccccc2-c2ccccc21)C(N)=O
Solution: active

Exercise: // return assay outcome for NC(=O)[C@H](Cc1ccccc1)NC(=O)[C@H](Cc1ccc2c(c1)COP(=O)(O)O2)NC(=O)OCC1c2ccccc2-c2ccccc21
Solution: active

Exercise: // return assay outcome for NC(=O)[C@H](CC(=O)O)NC(=O)[C@@H](N)Cc1ccc2c(c1)COP(=O)(O)O2
Solution: inactive

Exercise: // return assay outcome for NC(=O)[C@H](CC(=O)O)NC(=O)[C@H](Cc1ccc2c(c1)COP(=O)(O)O2)NC(=O)OCC1c2ccccc2-c2ccccc21
Solution: active
